protocol_description: NCI Yeast Anticancer Drug Screen. Data for the rad50 strain (AID 155);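 also: 0% = growth of vehicle-only cultures of the same strain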
details: S. cerevisiae rad50 strain growth inhibition; at 50.0 µM; hits give high values
Protocol: Growth inhibition of yeast strains with defined genetic alterations is measured as a screen for potential anti-cancer activity. Selected strains with alterations in DNA damage repair or cell cycle control were exposed to compounds and growth inhibition was measured relative to vehicle treated controls. The strain used in this assay is rad50
The panel holds about 79,000 compounds, 15% with a hit somewhere; the sample as a whole holds those more often.
parameter: growth inhibition (%)
The reply should be a number in %, with the unit left off.

Known results for molecules:
>>> df
                                   molecule  measurement
0  CC(CCC(=O)O)(Nc1ccc([N+](=O)[O-])cc1[N+](=O)[O-])C(=O)O (stereo unspecified)         99.2
1  CCC(=O)C(=O)CC1CC(c2ccco2)=Nc2ccccc2S1 (stereo unspecified)        -0.45
2  COC(=O)C1=C(NC(=O)Nc2ccc(Cl)cc2)OC(C)(C)C1c1ccc(Cl)cc1 (stereo unspecified)         96.5
3     O=C1C=CC(=NN=C(c2ccccc2)c2ccccc2)C=C1           55

In the following, a different molecule is considered.
**Query** Quick check: growth inhibition of Cc1nn(C(=O)c2ccccc2O)c2c1C(c1ccco1)SC(N)=N2 (stereo unspecified) ?
**Result** 67.5

* * *

protocol_description: NCI Yeast Anticancer Drug Screen. Data for the cln2 rad14 strain (AID 165);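 also: 0% = growth equal to vehicle treated cultures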
details: S. cerevisiae cln2 rad14 strain, at 50.0 µM, hits give high values
About 79,000 compounds went through this panel and 15% of them were active in at least one assay; those are over-represented in the sample as a whole.
Quick rule: growth inhibition of at least 80% means Satisfied, below that means Not satisfied.

>>> print(df.to_string())
                                   compound    label_value
0  O=[N+]([O-])/C=C/c1cc2c(ccc3ccccc32)[nH]1      Satisfied
1  COc1ccc(C2=C(Cl)C(=O)N(c3ccccc3Cl)C(=O)C2(Cl)Cl)cc1  Not satisfied

**Query** Threshold query (growth inhibition >= 80%) on C/C=C/C=C1\C=Cc2c(C(=O)OC)coc(=O)c21
**Result** Not satisfied

**Query** hey, is growth inhibition for this one >= 80%? Cc1cc(Cl)cc2c1NC(=O)C2(O)C/C(=N/NC(=O)CC#N)c1cccc([N+](=O)[O-])c1 (stereo not given)
**Result** Not satisfied

**Query** Hi team, for COC(=O)c1cccc2cccc(C(=O)Nc3ccc(C)cc3C)c12 , is the recorded growth inhibition at or above 80%?
**Result** Satisfied

**Query** growth inhibition >= 80% for NC1=NC2=C(CCCC2)C(c2cccs2)S1 (stereo not given) ?
**Result** Not satisfied

**Query** Does COc1cc(O)c2c(c1)C(O)C(O)CC1OC1C(=O)/C=C/CC(C)OC2=O (stereo not given) have a reported growth inhibition of at least 80%?
**Result** Satisfied

**Query** Exam item: decide whether the reported growth inhibition for COc1cc2c(cc1O)CCCCC2 is at least 80%.
**Result** Not satisfied

**Query** API: above_or_equal(metric=growth inhibition, cutoff=80%) for item CCOC(=O)/C(=C\c1ccc(Br)cc1)C(C)=O
**Result** Satisfied

**Query** growth inhibition >= 80% for CN(C)C(=O)N(C)/N=C/c1ccc([N+](=O)[O-])o1 ?
**Result** Not satisfied

**Query** Confirm if growth inhibition reported for the compound CN1C(=O)c2cccc3c([N+](=O)[O-])ccc(c23)C1=O is 80% or above.
**Result** Not satisfied

**Query** Decide: growth inhibition of OCC(O)C(O)C(O)C(O)c1cnn(-c2ccccc2)n1 (stereo not given) >= 80%?
**Result** Not satisfied

**Query** Could you please find out whether COC(=O)N/N=C(\C)C(CN1CCOCC1)C(c1ccccc1)c1cc2ccccc2oc1=O (stereo not given) has growth inhibition that meets 80% or exceeds it?
**Result** Not satisfied

**Query** Determine whether measured growth inhibition meets or exceeds 80% for OC(CCN1CCOCC1)C1c2ccccc2Cc2ccccc21 (stereo not given)
**Result** Not satisfied

**Query** Please indicate if the recorded growth inhibition for COc1ccc2nc3cc(Cl)ccc3c(NCCCN(Cc3cc(OC)c(OC)c(OC)c3)Cc3cc(OC)c(OC)c(OC)c3)c2c1 meets or exceeds 80%.
**Result** Not satisfied

**Query** Reported growth inhibition at or above 80%? O=[N+]([O-])c1ccc2c(c1)/C(=C/c1ccccc1O)c1ccccc1-2
**Result** Satisfied

**Query** Answer whether growth inhibition of CCN1/C(=C/C(C)=C/c2sc3ccccc3[n+]2CC)Sc2ccccc21 is greater than or equal to 80%.
**Result** Satisfied

**Query** Given CC(=O)OC1COC(N2C(=O)C(=O)c3cc(Br)ccc32)C(OC(C)=O)C1OC(C)=O (stereo not given) , state whether its growth inhibition is at least 80%.
**Result** Not satisfied

**Query** Is reported growth inhibition greater than or equal to 80% here: CC(=O)N=C1N(/C=C2\C(=O)Oc3ccccc3C2=O)C(=O)/C(=C/c2ccc(Cl)cc2Cl)N1C
**Result** Satisfied

**Query** # bool: growth inhibition of CCCCCCC(=O)OCCN(CCOC(=O)CCCCCC)C(=O)C(C)OC(=O)CCCCCC (stereo not given) >= 80%
**Result** Not satisfied

**Query** Could you verify whether the entry OCc1ccc2c(c1)CC1(C2)Cc2cc3c(cc2C1O)CCC3 (stereo not given) shows growth inhibition of no less than 80%?
**Result** Not satisfied

**Query** I'd appreciate it if you could say whether ClC1CC[N-]CC1.ClC1CC[N-]CC1.[Cl][Pt+2]([Cl])([Cl])[Cl] has growth inhibition at least equal to 80%.
**Result** Satisfied

* * *

protocol_description: NCI Yeast Anticancer Drug Screen. Data for the cln2 rad14 strain (AID 165);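 also: 0% = growth equal to vehicle treated cultures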
details: S. cerevisiae cln2 rad14 strain, at 5.0 µM (retest, dose inferred, filed as 0.5), hits give high values
This is part of a sample that, as a whole, favours compounds with a hit. Of some 79,000 tested, about 15% had one in any assay.
parameter: growth inhibition (%)
Please give a number only; it is taken to be in %.

In the examples that follow, each entry is paired with its recorded growth inhibition.
compound	measurement
Cc1[nH]nc(C(F)(F)F)c1N=NN1CCOCC1	47
CCNc1cc(N)[n+](CC)c2n[nH]c(/N=C/c3cc(Cl)cc(Cl)c3O)c12	63
CC(C)OCc1cccc2ccnc(COC(C)C)c12	-15
Cc1cc(C=Nc2ccccc2)c(O)c2ncccc12	8
Cn1c2c(c3ccccc31)CCN(CCCN1CCN(c3ccccc3)CC1)C2=O	38
CCOc1ccc2c(ccc(/C=C\c3cc(C)c4cccnc4c3O)[n+]2C)c1	67
COc1ccc(/C=C/C(=N/NC(=O)c2ccccc2)C(C)CN(C)C)cc1 (stereo unspecified)	1
Cc1cn(C2OC(CO)C(O)C(O)C2N)c(=O)[nH]c1=O (stereo unspecified)	-4

**Query** Report growth inhibition for CN1CCN(CC(C(=O)O)(c2ccccc2)c2ccccc2)CC1 please.
**Result** 4

**Query** Fill in: growth inhibition of NC(=O)CCSC(=S)N1CCOCC1 is ___
**Result** 4

**Query** Which measured growth inhibition value corresponds to Sc1ccccc1C1N(Cc2ccc(Cl)cc2)CCCN1Cc1ccc(Cl)cc1 ?
**Result** 99

**Query** // lookup growth inhibition for O=c1ccnc(Nc2ccc[nH]c2=S)[nH]1
**Result** -3

**Query** For CSC(=N)N1N=C2/C(=C/c3ccccc3)CCC[C@H]2[C@H]1c1ccccc1 , what is its reported growth inhibition?
**Result** -35

**Query** Given CC(=O)Oc1ccc(/C=C/c2ccncc2)cc1 , state its recorded growth inhibition.
**Result** -58

**Query** Entry Cc1cc(SCC(=O)c2ccc(Br)cc2)cc(C)[o+]1 has what growth inhibition?
**Result** -42

**Query** Quick check: growth inhibition of COC1OC(CI)C(OC(c2ccccc2)(c2ccccc2)c2ccccc2)C(OC(c2ccccc2)(c2ccccc2)c2ccccc2)C1OC(c1ccccc1)(c1ccccc1)c1ccccc1 (stereo unspecified) ?
**Result** -10

**Query** Using the record for Oc1ccc(Cc2cccc(Br)c2)c(O)c1 , report its growth inhibition.
**Result** -9

**Query** So what does the record say about growth inhibition for O=C(c1ccc(Cl)cc1)c1ccc(OCCCOc2ccc(C(=O)c3ccc(Cl)cc3)cc2)cc1 ?
**Result** -30

**Query** Entry O=C(OCc1ccccc1)C(O)c1ccccc1 (stereo unspecified) : reported growth inhibition = ?
**Result** -4

**Query** What does the record list as growth inhibition for COc1ccc2sc3c(C)ccc(NCC4CCCN5CCCCC45)c3c(=O)c2c1 (stereo unspecified) ?
**Result** 16

**Query** Value lookup for growth inhibition; key = N#CC1(C#N)C2C=CC(c3coc4cccc2c34)C1(C#N)C#N (stereo unspecified)
**Result** 19

**Query** What value of growth inhibition has been recorded for this entry: CC1=C(C)C(=O)C(CNCc2ccccc2)=[C-]C1=O.[Co].[c-]1[c-][c-][cH-][c-]1
**Result** 7

**Query** Which growth inhibition reading was recorded for the compound O=C1CCCC1C(=O)OC1CCCC1 (stereo unspecified) ?
**Result** 14

**Query** Item CNC(=O)OCCC(OC(=O)NC)C1CCC2C3CC=C4CC(OC(=O)NC)CCC4(C)C3CCC12C (stereo unspecified) has what recorded growth inhibition?
**Result** 72

**Query** growth inhibition lookup needed for O=C(OC12CCCCC1CCCC2)c1ccc([N+](=O)[O-])cc1 (stereo unspecified) , thanks.
**Result** 11
